Compound: CC(=O)OCC1=C(C(=O)O)N2C(=O)C(NC(=O)C(O)c3ccccc3)C2SC1 (stereo unspecified)
logP: -0.44
--
Compound: CC(C)(C)c1nnc(N)o1
logP: 0.48
--
Compound: CN(C)CCc1cccs1
logP: 1.99
--
Compound: CNC(=O)C(Cc1ccccc1)NC(C)=O (stereo unspecified)
logP: 0.4
--
Compound: CCC(C)C(NC(C)=O)C(=O)NC (stereo unspecified)
logP: 0.14
--
Compound: Cc1cc(=O)[nH]n1-c1ccncn1
logP: 1.4
--
Compound: CC(=O)Nc1cccc(OC(=O)CNC(=O)c2ccccc2)c1
logP: 1.7
--
Compound: CCCCN(SN(C)C(=O)Oc1cccc2c1OC(C)(C)C2)C(=O)OC
logP: 4.6
--
Compound: O=C(CNC(=O)c1ccccc1)Oc1ccc(F)cc1
logP: 2.46
--
Compound: Cc1ccc(OC(=O)CNC(=O)c2ccccc2)cc1
logP: 2.83
--
Compound: COC(=O)C(C#N)=NNc1cc(Cl)c(Cl)cc1Cl
logP: 5.15
--
Compound: Cc1cc2c(cc1Cc1cnc(N)nc1N)OCO2
logP: 1.89
--
Compound: Clc1cc(Cl)c(-c2ccccc2)cc1Cl
logP: 5.81
--
Compound: CN(C)C(=O)Oc1ccc([N+](=O)[O-])cc1
logP: 1.5
--
Compound: C[N+](C)(C)Cc1cccc([N+](=O)[O-])c1.[Br-]
logP: -2.66
--
Compound: CN(C)C(=O)c1ccoc1
logP: 0.24
--
Compound: CCc1nnc(SC)n(N)c1=O
logP: 0.46
--
Compound: COC12C(COC(N)=O)C3=C(C(=O)C(C)=C(Nc4cccnc4)C3=O)N1CC1NC12 (stereo unspecified)
logP: 0.52
--
Compound: CCOP(=S)(OCC)SCS(=O)C(C)(C)C (stereo unspecified)
logP: 2.21
--
Compound: COc1ccc(NS(=O)(=O)C(F)(F)F)cc1
logP: 3
--
Compound: c1cncc(CCN2CCCCC2)c1
logP: 1.66
--
Compound: COc1c(OCc2ccccc2)cc(Cc2cnc(N)nc2N)cc1OCc1ccccc1
logP: 3.89
--
Compound: CCN(CC)CCNC(=O)c1cc(Cl)cc(Cl)c1
logP: 3.77
--
Compound: CCOCC(O)Cn1ccnc1[N+](=O)[O-] (stereo unspecified)
logP: 0.04
--
Compound: COC1=C(C)C(=O)c2ccccc2C1=O
logP: 2.14
--
Compound: O=S(=O)(Nc1ccc(F)cc1)C(F)(F)F
logP: 3.25
--
Compound: CNC(=O)Oc1ccccc1SC
logP: 1.51
--
Compound: COc1cc(Cc2cnc(N)nc2N)cc(OC)c1O
logP: 0.37
--
Compound: O=C1CN=C(c2ccc(Cl)cc2)c2cc(Br)ccc2N1
logP: 3.78
--
Compound: CC(=O)N(C)/N=N/c1ccc(F)cc1
logP: 2.77
--
Compound: COc1cc(CC(C)N)c(OC)cc1Br (stereo unspecified)
logP: 2.58
--
Compound: COP(=O)(NCC(C)C)SC (stereo unspecified)
logP: 0.97
--
Compound: Cc1ccc(OC2OC(CO)C(O)C(O)C2O)cc1 (stereo unspecified)
logP: -0.16
--
Compound: O=C1CN=C(c2ccccc2F)c2cc(Cl)ccc2N1
logP: 2.7
--
Compound: COC(=O)C(C#N)=NNc1ccc(Cl)c(C(F)F)c1
logP: 3.8
--
Compound: CC(=O)N(c1ccccc1)S(C)(=O)=O
logP: 0.29
--
Compound: COc1cc(Cl)c(NC2=NCCN2)c(Cl)c1
logP: 1.6
--
Compound: O=[N+]([O-])c1cccc2c1c([N+](=O)[O-])cc[n+]2[O-]
logP: 0.95
--
Compound: CCCCCC[n+]1ccc(C)c(C)c1.[I-]
logP: -1.51
--
Compound: CCCCCCc1nnc(N)o1
logP: 1.43
--
Compound: COc1cc(-n2[nH]c(C)cc2=O)ncn1
logP: 0.99
--
Compound: Cc1ccc(NC2=NCCN2)c(C)c1
logP: 1.79
--
Compound: CC(C)c1cccc(OC2OC(CO)C(O)C(O)C2O)c1 (stereo unspecified)
logP: 0.65
--
Compound: C#CC(C)(C)N(C)C(C)C
logP: 2.29
--
Compound: COc1ccccc1C(=O)NCCCCN
logP: 0.58
--
Compound: CC(=O)C(C#N)=NNc1ccc(Cl)cc1C
logP: 4.28
--
Compound: COc1cc(Cc2cnc(N)nc2N)cc(OC)c1SC
logP: 1.54
--
Compound: CC(=O)Nc1cccc(N=NN(C)C)c1
logP: 1.61
--
Compound: CNC1C2CCC1c1ccccc12 (stereo unspecified)
logP: 2.37
--
Compound: CCOP(=S)(OCC)Oc1ccc(S(C)(=O)=O)cc1
logP: 2.56
--
Compound: O=[N+]([O-])c1c(Cl)c[n+]([O-])c2ccccc12
logP: 1.33
--
Compound: Cn1c(C(O)CO)cnc1[N+](=O)[O-] (stereo unspecified)
logP: -0.89
--
Compound: COc1ccccc1NCC#N
logP: 1.3
--
Compound: CC(=O)C(C#N)=NNc1ccc(Cl)c(Cl)c1
logP: 4.56
--
Compound: Cc1cc(C(=O)O)no1
logP: 0.68
--
Compound: Nc1nc(N)nc(-c2ccc(Cl)cc2Cl)n1
logP: 2.07

---

# satisfied = logP below 1 (exclusive); not satisfied = logP at/above 1

Compound: CNP(=O)(OC)Oc1ccc(C(C)(C)C)cc1 (centres undefined)
Category label: not satisfied
--
Compound: CCc1ccc2c(c1)C(c1ccccc1F)=NCC(=O)N2
Category label: not satisfied
--
Compound: C=Cc1cnc([N+](=O)[O-])n1C
Category label: satisfied
--
Compound: CCCS(=O)(=O)c1cc(OC)c(OC)c(OC)c1
Category label: not satisfied
--
Compound: CN(C)CCN(Cc1ccc(C(C)(C)C)cc1)c1ccccc1
Category label: not satisfied
--
Compound: ClC1C(Cl)C(Br)C(Cl)C(Br)C1Cl (centres undefined)
Category label: not satisfied
--
Compound: CC(=O)Nc1ccc(O)c(C)c1
Category label: satisfied
--
Compound: CCCCCC[n+]1ccccc1C.[I-]
Category label: satisfied
--
Compound: NC(=S)c1ncccn1
Category label: satisfied
--
Compound: O=S1(=O)N=CNc2ccc(Cl)cc21
Category label: not satisfied
--
Compound: COCc1c(OC)cc(Cc2cnc(N)nc2N)cc1OC
Category label: not satisfied
--
Compound: CCc1cc(=O)n2c(C)cccc2n1
Category label: not satisfied
--
Compound: COc1ccc(Cc2cnc(N)nc2N)cc1OCc1ccccc1
Category label: not satisfied
--
Compound: CC1(C)N=C(N)N=C(N)N1c1ccc(C(F)(F)F)cc1
Category label: not satisfied

---

Compound: O=[N+]([O-])c1cc2nc(C(F)(F)F)[nH]c2cc1Cl
logP: 3.21
//
Compound: O=CNC=Cc1ccccc1
logP: 1.95
//
Compound: CC(=O)OCC(Cn1ccnc1[N+](=O)[O-])OC(C)=O (configuration not stated)
logP: -0.05
//
Compound: C[N+](C)(C)Cc1ccncc1.[Br-]
logP: -3.95
//
Compound: CCOC(=O)CCCCCn1nnc2ccccc21
logP: 2.68
//
Compound: Clc1cccc(Cl)c1-c1ccccc1
logP: 4.98
//
Compound: CSC1=NC(=O)C(=Cc2ccc([N+](=O)[O-])o2)S1
logP: 1.41
//
Compound: Clc1ccc(C2NCCS2)cc1 (configuration not stated)
logP: 2.1
//
Compound: CCSCC1=Nc2cc(Cl)ccc2S(=O)(=O)N1
logP: 2.26
//
Compound: COc1cccc(OC2OC(CO)C(O)C(O)C2O)c1 (configuration not stated)
logP: -0.52
//
Compound: CCOC(=O)c1[nH]cnc1N=NN(C)C
logP: 0.44
//
Compound: NC(=O)CCn1nnc2ccccc21
logP: 0.27
//
Compound: CC(C)=CC1C(C(=O)OCc2ccc(C#N)cc2)C1(C)C (configuration not stated)
logP: 4.91
//
Compound: c1ccc(O[Si]23OCCN(CCO2)CCO3)cc1
logP: -0.3
//
Compound: CC1=CC(=O)N2C=CCCC2(C)N1 (configuration not stated)
logP: 0.69
//
Compound: CNC1=NC(=O)C(=CC=Cc2ccc([N+](=O)[O-])o2)S1
logP: 1.35
//
Compound: O=C1CCC(=O)N1c1ccc(Cl)cc1
logP: 0.96
//
Compound: COC1(C(F)(F)F)C(Cl)C(Cl)C(Cl)C(Cl)C1Cl (configuration not stated)
logP: 4.06
//
Compound: CCCCCCC1OC(=O)c2ccccc21 (configuration not stated)
logP: 3.55
//
Compound: CN(C)C(=O)Oc1ccc(Cl)cc1
logP: 2.27
//
Compound: NC(=O)CCCn1nnc2ccccc21
logP: 0.37
//
Compound: CCCCN(C)CCS(=O)(=O)c1cc(OC)c(OC)c(OC)c1
logP: 2.05
//
Compound: Cc1c([N+](=O)[O-])cc(C(N)=O)cc1[N+](=O)[O-]
logP: 0.68
//
Compound: CCOC(=O)c1ccc2cccccc1-2
logP: 3.83
//
Compound: O=C(NC(CO)C(O)c1ccccc1)C(Cl)Cl (configuration not stated)
logP: 0.94
//
Compound: CCOCCn1ccnc1[N+](=O)[O-]
logP: 0.53
//
Compound: CN(/N=N/c1nc[nH]c1C(N)=O)C(C)(C)C
logP: 0.94
//
Compound: CCc1cc(OP(=O)(OC)OC)ccc1[N+](=O)[O-]
logP: 2.19
//
Compound: COc1cc(S(=O)(=O)CCN2CCCCC2)cc(OC)c1OC
logP: 1.6
//
Compound: COc1cc(Cc2cnc(N)nc2N)cc(C)c1OC
logP: 1.62
//
Compound: CN(C)Cc1cccs1
logP: 1.67
//
Compound: O=NN(CCCl)C(=O)NCCO
logP: 0.3
//
Compound: O=C(NCc1ccccc1O)c1ccccc1
logP: 2.55
//
Compound: C[N+](C)(C)Cc1ccccn1.[Br-]
logP: -3.4
//
Compound: CCN(CC)CCNC(=O)c1cc(F)cc(Cl)c1OC
logP: 3.18
//
Compound: O=C(c1ccncc1)c1ccc([N+](=O)[O-])cc1
logP: 1.76
//
Compound: CC(=O)c1cccc(NS(=O)(=O)C(F)(F)F)c1
logP: 2.78
//
Compound: COc1ccc(Br)cc1Cc1cnc(N)nc1N
logP: 2.44
//
Compound: O=C1CCCN1CCOc1ccc([N+](=O)[O-])cc1
logP: 1.33
//
Compound: O=C1CCCN1Cc1ccccc1
logP: 1.25
//
Compound: C=CCOn1c(=O)[nH]c(C)c(Br)c1=O
logP: 0.32
//
Compound: CCNC1=NC(=O)C(=Cc2ccc([N+](=O)[O-])o2)S1
logP: 1.16
//
Compound: Nc1ncco1
logP: -0.18
//
Compound: CC(N)Cc1ccc2c(c1)OCO2 (configuration not stated)
logP: 1.64
//
Compound: COc1c(Cl)cc(Cc2cnc(N)nc2N)cc1Cl
logP: 2.78
//
Compound: CCc1cccc(CC)c1NC1=NCCN1
logP: 2.48
//
Compound: CN(C)/N=N/c1ccccc1C(=O)NN
logP: 1.28
//
Compound: Clc1ccccc1-c1ccc(Cl)c(Cl)c1Cl
logP: 6.11
//
Compound: CN(C)N=Nc1ccc(C#N)cc1
logP: 2.39
//
Compound: O=[N+]([O-])C=Cc1ccccc1Cl
logP: 2.85
//
Compound: O=C(NC(CO)C(O)c1ccc([N+](=O)[O-])cc1)c1ccccc1 (configuration not stated)
logP: 1.63
//
Compound: CC(C)CC1=Nc2cc(Cl)ccc2S(=O)(=O)N1
logP: 2.35
//
Compound: CCN1C(=O)SC(=Cc2ccc([N+](=O)[O-])o2)C1=O
logP: 2.29
//
Compound: S=C=Nc1ccc(Nc2ccccc2)cc1
logP: 4.94
//
Compound: N#Cc1ccc2nccnc2c1
logP: 1.01
//
Compound: CCC[n+]1cccc2ccccc21.[Br-]
logP: -2.52
//
Compound: NS(=O)(=O)c1ccccc1Cl
logP: 0.74
